Ref: patent US20230365559A1

# studyTarget: ATM (Homo sapiens, UniProt Q13315)
# Sequence (Q13315 whole entry): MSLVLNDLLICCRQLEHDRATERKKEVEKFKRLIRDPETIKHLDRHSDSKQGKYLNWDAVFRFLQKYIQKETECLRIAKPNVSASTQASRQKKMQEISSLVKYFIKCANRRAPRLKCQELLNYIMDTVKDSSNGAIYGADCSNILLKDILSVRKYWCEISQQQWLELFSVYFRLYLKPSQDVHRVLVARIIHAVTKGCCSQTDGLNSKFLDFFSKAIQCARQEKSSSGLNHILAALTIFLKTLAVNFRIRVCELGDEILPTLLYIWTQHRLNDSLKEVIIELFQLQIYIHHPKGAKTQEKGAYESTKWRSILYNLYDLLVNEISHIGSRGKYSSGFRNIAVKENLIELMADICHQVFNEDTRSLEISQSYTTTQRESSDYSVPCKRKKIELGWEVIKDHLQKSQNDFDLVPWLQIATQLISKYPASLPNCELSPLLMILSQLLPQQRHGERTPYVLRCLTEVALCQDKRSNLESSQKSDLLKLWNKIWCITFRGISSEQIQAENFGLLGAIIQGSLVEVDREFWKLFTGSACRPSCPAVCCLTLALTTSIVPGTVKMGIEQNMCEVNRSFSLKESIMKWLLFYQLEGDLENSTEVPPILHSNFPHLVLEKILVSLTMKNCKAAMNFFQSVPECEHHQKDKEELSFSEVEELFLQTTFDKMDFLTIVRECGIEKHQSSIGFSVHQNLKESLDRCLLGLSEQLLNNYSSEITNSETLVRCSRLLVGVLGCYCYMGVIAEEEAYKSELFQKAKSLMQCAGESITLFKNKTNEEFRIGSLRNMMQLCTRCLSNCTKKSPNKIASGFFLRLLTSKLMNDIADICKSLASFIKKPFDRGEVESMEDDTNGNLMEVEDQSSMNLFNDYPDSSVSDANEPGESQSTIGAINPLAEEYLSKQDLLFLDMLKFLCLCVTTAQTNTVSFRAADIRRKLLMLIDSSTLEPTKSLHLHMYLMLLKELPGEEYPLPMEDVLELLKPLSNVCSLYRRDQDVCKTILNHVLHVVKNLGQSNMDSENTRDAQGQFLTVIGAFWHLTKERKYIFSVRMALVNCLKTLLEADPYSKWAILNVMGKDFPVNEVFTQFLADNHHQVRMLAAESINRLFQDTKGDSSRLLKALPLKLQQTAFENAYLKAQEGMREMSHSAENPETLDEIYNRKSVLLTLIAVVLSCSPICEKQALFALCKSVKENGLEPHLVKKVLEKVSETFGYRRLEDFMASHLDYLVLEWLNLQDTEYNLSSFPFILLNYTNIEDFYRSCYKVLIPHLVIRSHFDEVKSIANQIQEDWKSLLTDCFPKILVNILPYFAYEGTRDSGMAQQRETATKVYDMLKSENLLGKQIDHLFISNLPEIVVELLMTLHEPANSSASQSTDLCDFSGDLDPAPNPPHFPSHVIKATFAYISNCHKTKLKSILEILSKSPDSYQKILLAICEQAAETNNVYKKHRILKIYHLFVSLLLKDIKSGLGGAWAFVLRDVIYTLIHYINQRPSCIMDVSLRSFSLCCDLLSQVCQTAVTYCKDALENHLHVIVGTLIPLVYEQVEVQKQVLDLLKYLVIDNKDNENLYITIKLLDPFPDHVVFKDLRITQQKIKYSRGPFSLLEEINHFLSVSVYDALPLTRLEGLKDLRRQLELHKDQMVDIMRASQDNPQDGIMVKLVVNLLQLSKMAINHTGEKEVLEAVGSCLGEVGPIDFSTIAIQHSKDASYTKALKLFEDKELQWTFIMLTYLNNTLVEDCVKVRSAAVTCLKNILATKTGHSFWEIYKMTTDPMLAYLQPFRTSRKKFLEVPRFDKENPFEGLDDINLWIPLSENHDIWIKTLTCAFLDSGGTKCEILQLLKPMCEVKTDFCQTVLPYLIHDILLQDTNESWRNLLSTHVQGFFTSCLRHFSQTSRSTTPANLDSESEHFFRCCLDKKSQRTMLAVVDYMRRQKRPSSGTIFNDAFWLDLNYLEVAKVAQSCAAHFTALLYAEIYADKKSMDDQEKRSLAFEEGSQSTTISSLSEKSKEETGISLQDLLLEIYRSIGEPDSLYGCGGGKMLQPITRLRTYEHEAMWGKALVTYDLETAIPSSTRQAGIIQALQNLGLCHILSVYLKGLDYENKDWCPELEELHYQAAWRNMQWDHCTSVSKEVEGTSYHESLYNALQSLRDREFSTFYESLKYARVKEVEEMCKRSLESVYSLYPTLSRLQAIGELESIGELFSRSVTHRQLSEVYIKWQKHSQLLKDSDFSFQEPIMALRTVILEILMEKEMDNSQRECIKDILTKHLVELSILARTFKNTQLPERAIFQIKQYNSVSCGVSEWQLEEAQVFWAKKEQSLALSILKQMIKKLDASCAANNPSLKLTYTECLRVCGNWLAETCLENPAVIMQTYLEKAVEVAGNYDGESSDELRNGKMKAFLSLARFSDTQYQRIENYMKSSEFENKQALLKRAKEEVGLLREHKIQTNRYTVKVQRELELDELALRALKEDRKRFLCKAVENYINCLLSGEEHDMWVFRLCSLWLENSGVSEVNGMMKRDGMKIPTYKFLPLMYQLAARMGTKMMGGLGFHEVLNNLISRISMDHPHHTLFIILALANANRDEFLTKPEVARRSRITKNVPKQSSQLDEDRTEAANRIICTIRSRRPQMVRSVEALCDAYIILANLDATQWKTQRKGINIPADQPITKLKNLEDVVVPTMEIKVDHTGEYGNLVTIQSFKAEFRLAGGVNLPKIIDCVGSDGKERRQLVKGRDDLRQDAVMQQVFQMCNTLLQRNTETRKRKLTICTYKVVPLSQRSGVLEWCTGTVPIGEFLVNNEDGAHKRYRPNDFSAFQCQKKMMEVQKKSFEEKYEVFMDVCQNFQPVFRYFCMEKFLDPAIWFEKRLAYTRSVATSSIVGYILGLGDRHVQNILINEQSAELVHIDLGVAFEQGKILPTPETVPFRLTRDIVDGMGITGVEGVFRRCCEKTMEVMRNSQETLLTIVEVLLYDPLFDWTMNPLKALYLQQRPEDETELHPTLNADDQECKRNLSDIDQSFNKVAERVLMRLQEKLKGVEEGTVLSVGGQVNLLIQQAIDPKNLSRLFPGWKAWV
# assayName: ATM Human PIKK Kinase Enzymatic ELISA/EIA Assay, KinaseProfiler (Eurofins Discovery)
# Format: biochemical
# statedConditions: read-out: ATM, Percent of control at 1 μM
In this section, each of the compounds is paired with its reported remaining activity at 1 µM.

# compound, remaining activity at 1 µM (%)
records = [
    ("Cc1cc(NCCN(C)C)ccc1Nc1cc2c(cn1)n(C)c(=O)n2C1CCCC1 [Compound 56]", 86),
    ("Cn1c(=O)n(C2CCCC2)c2cc(Nc3cccc4ncccc34)ncc21 [Compound 65]", 93),
    ("Cn1c(=O)n(C2CCCC2)c2cc(Nc3cccc4cnccc34)ncc21 [Compound 66]", 92),
    ("Cc1cc2ncnn2cc1Nc1cc2c(cn1)n(C)c(=O)n2C1CCOCC1 [Compound 125]", 74),
]
